Cited source: ChEMBL document CHEMBL2021918

- tested target: Cannabinoid receptor 1 (Homo sapiens, UniProt P21554)
- Sequence (P21554 whole entry): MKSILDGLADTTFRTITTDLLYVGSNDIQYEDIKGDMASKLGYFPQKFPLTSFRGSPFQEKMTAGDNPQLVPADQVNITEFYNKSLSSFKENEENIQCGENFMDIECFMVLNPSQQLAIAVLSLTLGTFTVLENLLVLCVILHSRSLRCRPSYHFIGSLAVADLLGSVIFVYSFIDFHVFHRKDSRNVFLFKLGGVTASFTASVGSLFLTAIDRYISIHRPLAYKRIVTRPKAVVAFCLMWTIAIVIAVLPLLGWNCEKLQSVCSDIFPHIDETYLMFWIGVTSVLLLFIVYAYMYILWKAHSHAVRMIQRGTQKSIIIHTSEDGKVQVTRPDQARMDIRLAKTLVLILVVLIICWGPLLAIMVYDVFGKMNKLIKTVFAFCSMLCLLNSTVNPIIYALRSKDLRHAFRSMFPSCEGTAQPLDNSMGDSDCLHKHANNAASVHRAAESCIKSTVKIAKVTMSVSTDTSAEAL
- procedure details: Agonist activity at human CB1 receptor expressed in CHO cells assessed as inhibition of forskolin-induced cAMP levels after 20 mins
measure name: IC50

>>> print(df.to_string())
                                item_smiles  assay_result
0  O=C(N[C@H](C(=O)O)c1ccccc1)c1cc2c(n(CC3CCCCC3)c1=O)CCCCCC2        > 2 µM
1  O=C(N[C@@H](Cc1ccccc1)C(=O)O)c1cc2c(n(CC3CCCCC3)c1=O)CCCCCC2      0.297 µM
2  O=C(O)Cc1ccc(NC(=O)c2cc3c(n(CC4CCCCC4)c2=O)CCCCCC3)cc1        > 2 µM

====

- tested target: UniProt P34972
- Sequence (P34972 whole entry): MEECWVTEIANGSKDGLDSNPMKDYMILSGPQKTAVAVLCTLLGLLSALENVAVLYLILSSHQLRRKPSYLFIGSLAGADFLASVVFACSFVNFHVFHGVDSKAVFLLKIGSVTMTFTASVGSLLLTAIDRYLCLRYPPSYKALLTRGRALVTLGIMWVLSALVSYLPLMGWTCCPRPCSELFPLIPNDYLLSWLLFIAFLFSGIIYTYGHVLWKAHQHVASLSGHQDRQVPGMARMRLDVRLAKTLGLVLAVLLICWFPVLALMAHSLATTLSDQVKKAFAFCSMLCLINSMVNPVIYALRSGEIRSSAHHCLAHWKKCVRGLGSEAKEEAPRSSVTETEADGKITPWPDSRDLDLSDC
- procedure details: Agonist activity at human CB2 receptor expressed in CHO cells assessed as inhibition of forskolin-induced cAMP levels after 20 mins
measure name: IC50

In [3]: df
Out[3]:
                                item_smiles  measure_name  assay_result
0  O=C(O)Cc1cccc(NC(=O)c2cc3c(n(CC4CCCCC4)c2=O)CCCCCC3)c1          IC50        180 nM
1  O=C(O)c1ccccc1NC(=O)c1cc2c(n(CC3CCCCC3)c1=O)CCCCCC2          IC50        167 nM
2  O=C(O)Cc1cnc(NC(=O)c2cc3c(n(CC4CCCCC4)c2=O)CCCCCC3)s1          IC50        3.5 nM
3  O=C(O)Cc1ccc(NC(=O)c2cc3c(n(CC4CCCCC4)c2=O)CCCCCC3)cc1          IC50         96 nM
4  O=C(N[C@@H](C(=O)O)c1ccccc1)c1cc2c(n(CC3CCCCC3)c1=O)CCCCCC2          IC50        4.4 nM
5  O=C(N[C@@H](Cc1ccccc1)C(=O)O)c1cc2c(n(CC3CCCCC3)c1=O)CCCCCC2          IC50        126 nM
6  O=C(O)c1cccc(NC(=O)c2cc3c(n(CC4CCCCC4)c2=O)CCCCCC3)c1          IC50        268 nM
7  O=C(O)c1cnc(NC(=O)c2cc3c(n(CC4CCCCC4)c2=O)CCCCCC3)s1          IC50        800 nM
8  O=C(O)c1ccc(NC(=O)c2cc3c(n(CC4CCCCC4)c2=O)CCCCCC3)cc1          IC50         38 nM
9  O=C(N[C@H](C(=O)O)C1CCCCC1)c1cc2c(n(CC3CCCCC3)c1=O)CCCCCC2          IC50         51 nM

====

Here's what we have: Ki numbers for UniProtKB P34972.
measure name: Ki (nM)

                                item_smiles     tested_target  value_prefix  assay_result
0  O=C(O)c1csc(NC(=O)c2cc3c(n(CC4CCCCC4)c2=O)CCCCCC3)n1  UniProtKB P34972             >          5000
1  O=C(N[C@@H](C(=O)O)c1ccccc1)c1cc2c(n(CC3CCCCC3)c1=O)CCCCCC2  UniProtKB P34972             =             3
2  CC(C)[C@H](NC(=O)c1cc2c(n(CC3CCCCC3)c1=O)CCCCCC2)C(=O)O  UniProtKB P34972             =           116
3  O=C(O)Cc1cccc(NC(=O)c2cc3c(n(CC4CCCCC4)c2=O)CCCCCC3)c1  UniProtKB P34972             =           120
4  O=C(O)c1cccc(NC(=O)c2cc3c(n(CC4CCCCC4)c2=O)CCCCCC3)c1  UniProtKB P34972             =           614
